From: patent US20230139171A1

# tested.system: human TLR9 (Homo sapiens, UniProt Q9NR96)
# Sequence (Q9NR96 26-1032): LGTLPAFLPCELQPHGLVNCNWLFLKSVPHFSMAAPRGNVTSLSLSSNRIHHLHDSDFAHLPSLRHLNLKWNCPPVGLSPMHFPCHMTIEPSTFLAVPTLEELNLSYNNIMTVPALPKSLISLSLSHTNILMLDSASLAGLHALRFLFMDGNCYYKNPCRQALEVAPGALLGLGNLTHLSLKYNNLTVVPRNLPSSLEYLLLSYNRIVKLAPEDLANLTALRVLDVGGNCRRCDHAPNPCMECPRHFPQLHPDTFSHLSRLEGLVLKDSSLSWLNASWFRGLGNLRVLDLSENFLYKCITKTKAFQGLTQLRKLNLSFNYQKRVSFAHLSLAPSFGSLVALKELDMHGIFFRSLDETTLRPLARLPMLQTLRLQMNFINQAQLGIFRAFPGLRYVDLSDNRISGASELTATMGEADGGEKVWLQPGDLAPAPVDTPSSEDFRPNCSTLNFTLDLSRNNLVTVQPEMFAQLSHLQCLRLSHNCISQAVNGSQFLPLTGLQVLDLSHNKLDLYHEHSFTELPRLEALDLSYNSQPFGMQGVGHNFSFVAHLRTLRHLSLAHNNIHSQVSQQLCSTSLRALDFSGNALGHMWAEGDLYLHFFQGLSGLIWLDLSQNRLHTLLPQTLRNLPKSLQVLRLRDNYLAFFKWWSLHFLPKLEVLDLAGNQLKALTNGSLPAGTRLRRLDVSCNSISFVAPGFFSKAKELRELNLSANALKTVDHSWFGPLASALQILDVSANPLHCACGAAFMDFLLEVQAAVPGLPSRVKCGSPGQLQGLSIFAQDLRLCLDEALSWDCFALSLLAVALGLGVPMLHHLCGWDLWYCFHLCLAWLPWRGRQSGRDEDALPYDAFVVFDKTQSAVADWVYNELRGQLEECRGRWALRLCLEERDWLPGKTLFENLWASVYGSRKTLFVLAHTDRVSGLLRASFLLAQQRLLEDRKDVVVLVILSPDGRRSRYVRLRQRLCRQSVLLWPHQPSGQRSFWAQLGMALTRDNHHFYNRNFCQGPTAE
# experiment.notes: TLR9 inhibition reporter assay (HEK-Blue cells, SEAP reporter, ODN2006 stimulation)
# condition.summary: HEK-Blue cells overexpressing human TLR9, SEAP reporter, ODN2006 5 nM
measured.parameter: IC50
Number first, unit second.

molecule="Cc1c(-c2[nH]c3sc(C4CCC(NC5CCS(=O)(=O)C5)CC4)nc3c2C(C)C)cn2ncnc2c1C (racemic) [Example 230]" reported_value="43.5 µM"
molecule=Cc1cc(-c2[nH]c3sc(C4CCN(CC(C)(C)O)CC4)nc3c2C(C)C)cn2ncnc12 reported_value="3.74 µM"
molecule=Cc1c(-c2[nH]c3sc(N4C[C@@H](C)NC[C@@H]4C)nc3c2C(C)C)cn2ncnc2c1C reported_value="14.4 µM"

Record IC50 per entry; entries follow.
1. Cc1c(-c2[nH]c3sc(CNC4CCN(C(C)C)CC4)nc3c2C(C)C)cn2ncnc2c1C
2. Cc1cc2ncnn2cc1-c1[nH]c2sc(C3CCC(N4CCCOCC4)CC3)nc2c1C(C)C (single isomer, unassigned) [Example 146]
3. COc1cc(-c2[nH]c3sc(C4CCC(N(C)C5COC5)CC4)nc3c2C(C)C)cn2ncnc12 (centres unmarked) [Example 124]
4. Cc1c(-c2[nH]c3sc(N4CCN(C(=O)CN(C)C)C[C@@H]4C)nc3c2C(C)C)cn2ncnc2c1C
5. Cc1cc(-c2[nH]c3sc(C4CCC(NCC(C)(C)O)CC4)nc3c2C(C)C)cn2ncnc12 (single isomer, unassigned) [Example 141]
6. COc1cc(-c2[nH]c3sc(C4CCC(N5CCCC5)CC4)nc3c2C(C)C)cn2ncnc12 (single isomer, unassigned) [Example 99]

Reply:
13.5 µM
16.3 µM
28.6 µM
19.2 µM
12.8 µM
3.61 µM

Record IC50 per entry; entries follow.
1. Cc1c(-c2[nH]c3sc(N4CCNC[C@@H]4C)nc3c2C(C)C)cn2ncnc2c1C
2. COc1cc(-c2[nH]c3sc(C4CCC(NC5(C#N)CC5)CC4)nc3c2C(C)C)cn2ncnc12 (centres unmarked) [Example 107]
3. COc1cc(-c2[nH]c3sc(C4CCC(NC5CCN(C(C)C)CC5)CC4)nc3c2C(C)C)cn2ncnc12 (single isomer, unassigned) [Example 166]
4. Cc1c(-c2[nH]c3sc(C4CCC(N5CC(O)(C(F)(F)F)C5)CC4)nc3c2C(C)C)cn2ncnc2c1C (single isomer, unassigned) [Example 236]

Reply:
["19.3 µM", "15.4 µM", "0.383 µM", "25.4 µM"]

Task item: Can you share its IC50? I mean this molecule: `Cc1c(-c2[nH]c3sc(N4CCC(NCC(C)(C)O)CC4)nc3c2C(C)C)cn2ncnc2c1C`
Reply: 16.8 µM
